Where do these numbers come from? They come from PubChem BioAssay (NCATS).

# measurement_notes: Quantitative highthroughput screen to assess conditional lethalithy of NOMO1 cells grown in RPMI1640 with untreated serum (RPMI+s) (AID 1963876); note: nearly all actives have a fitted effect of over 35% in size;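 for viability: 100% = DMSO wells and 0% = empty wells without cells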
# cond: NOMO1 AML cells in RPMI+serum, CellTiter-Glo viability, 48 h; series mostly up to 45.8 µM
# Procedure: Assay Provider: Jason Cantor Ph.D. Department of Biochemistry University of Wisconsin-Madison, Madison, WI, USA Chemical screening studies have identified drug sensitivities across hundreds of cancer cell lines but most putative therapeutics fail to translate. […] Sets of conditional anticancer compounds spanned phases of clinical development and included non-oncology drugs were assessed. […] 6; Detection; Luminescence, Viewlux PerkinElmer. […]
Inconclusive results are not listed. The source made the active and inactive calls. Calls come from the whole dose curve; as a rule, active = well fitted cell-killing curve with a large enough effect; inconclusive = small, poorly fitted or top-dose-only effect; inactive = flat fitted curve, though single readings scatter. Bridge positions count the residues as written; N and C are the ends. Square brackets hold non-standard residues; d marks the D form. Peptide text beside a SMILES is read from it. * marks the point of attachment. ξ: configuration not given here. Octanoyl(6-Me) = CCC(C)CCCCC(=O)*; ξThr(3R) = C[C@@H](O)C(N)C(=O)O; dDab = NCC[C@@H](N)C(=O)O; Dab = NCC[C@H](N)C(=O)O
Answer with one of the outcomes given here: 1.0 for active, 0.0 for inactive

compound=N#Cc1ccc(NC(=O)Nc2ccccc2Br)c2n[nH]nc12 answer_label=0.0
compound=CS(=O)(=O)CCNCc1ccc(-c2ccc3ncnc(Nc4ccc(OCc5cccc(F)c5)c(Cl)c4)c3c2)o1 answer_label=1.0
compound=C=C1C(=CC=C2CCC[C@]3(C)[C@@H]([C@H](C)C=C[C@H](C)C(C)C)CC[C@@H]23)C[C@@H](O)C[C@@H]1O answer_label=1.0
compound=O=NN(CCCl)C(=O)NC1CCCCC1 answer_label=0.0
compound="CCC(C)CCCCC(=O)N[C@@H](CCN)C(=O)NC(C(=O)N[C@H](CCN)C(=O)N[C@@H]1CCNC(=O)C([C@@H](C)O)NC(=O)[C@@H](CCN)NC(=O)[C@@H](CCN)NC(=O)[C@@H](CC(C)C)NC(=O)[C@H](Cc2ccccc2)NC(=O)[C@H](CCN)NC1=O)[C@@H](C)O (stereo partly drawn) ({Octanoyl(6-Me)}-[Dab][ξThr(3R)][dDab][dDab][Dab]F[dL][dDab][dDab][ξThr(3R)]; lactam 4-C)" answer_label=0.0
compound=O=C(O)CCc1ccc(NCc2cccc(Oc3ccccc3)c2)cc1 answer_label=0.0
compound=O=C(O)c1cn(-c2ccc(F)cc2)c2cc(N3CCNCC3)c(F)cc2c1=O answer_label=0.0
compound=NC(=O)c1ccc(-c2nc(-c3ccc4c(c3)OCCO4)c(-c3ccccn3)[nH]2)cc1 answer_label=0.0
compound="CN1CCN2c3ncccc3Cc3ccccc3C2C1 (centres undefined)" answer_label=0.0
compound=S=P(N1CC1)(N1CC1)N1CC1 answer_label=0.0

Query: Recorded test call requested for CC(=O)N1CCN(c2ccc(OCc3nn(C)c(C)c3-c3cccc4c(CCCOc5cccc6ccccc56)c(C(=O)O)n(Cc5cccnc5)c34)cc2)CC1
Result: 1.0

Query: Next record, please: O=c1cc(CN2CCOCC2)occ1OCCCCCSc1ccnc2cc(C(F)(F)F)ccc12
Result: 0.0

Query: Next record, please: COc1ccc2nc3cc(Cl)ccc3c(Nc3cc(CN4CCCC4)c(O)c(CN4CCCC4)c3)c2n1
Result: 0.0

Query: Next record, please: NS(=O)(=O)c1ccc(NC2=CC(=O)c3ccccc3C2=O)cc1
Result: 0.0

Query: Next record, please: FC(F)(F)c1ccc(CNc2ccc(Cc3c[nH]c4ncc(Cl)cc34)cn2)cn1
Result: 1.0

Query: Next record, please: CC(=O)Oc1ccccc1C(=O)Nc1ncc([N+](=O)[O-])s1
Result: 0.0
